# System: SR leukemia
# METHOD NOTES: NCI-60 one-dose screen, 48 h (100 = growth as untreated, 0 = no growth, -100 = all killed)
# CONDITION DETAILS: 10 µM unless noted
This is part of a sample that, as a whole, favours compounds with a hit. Of some 83,000 tested, about 20% had one in any assay.
Known growth of a selection of compounds
PROPERTY: growth (%)

CCN(CC)CCNC(=O)c1ccc(-c2nc3ccc4[nH]ncc4c3c3c2CCCC3)cc1 :: 6.02
COc1cc(N2C(=O)[C@H](c3ccccc3)C2c2ccc(SC)cc2)cc(OC)c1OC (stereo partly drawn) :: -5.24
C#CC#CC#CC#CC#CC#CC#CC#CC[C@H]1OC[C@H](COC(=O)O[C@@H](C(=O)O[C@H]2C[C@@]3(O)[C@@H](OC(=O)c4ccccc4)[C@@H]4[C@]5(OC(C)=O)CO[C@@H]5C[C@H](O)[C@@]4(C)C(=O)[C@H](OC(C)=O)C(=C2C)C3(C)C)[C@@H](NC(=O)c2ccccc2)c2ccccc2)O1 :: 25.8
CCOC(=O)c1c2c(n3c1NCC3)-c1ccccc1C2=O :: 100
O=C(CSc1nnc2sc(Nc3cccc(Cl)c3)nn12)c1ccc(F)cc1 :: 90.9
CCCCCCCC/C=C\CCCCCCCCOc1ccc(CC(=O)NCC[N+](C)(C)C)cc1 :: 62.4
CCOC(=O)/C=C/c1c(C)[nH]c(=O)[nH]c1=O :: 69.6
COc1ccc(/C(C)=C(\c2ccc(Cl)cc2)c2ccc(OCCN3CCCC3)cc2)cc1 :: -21.6
CCNC(=O)Oc1ccc(/C(=C(/C)Cc2ccc(OC)cc2)c2ccc(OCCN3CCCCCC3)cc2)cc1 :: -51.7
Cn1cc(-c2nonc2-c2c[nH]c3ccc(F)cc23)c2cc(Br)ccc21 :: 27
CCCCCCCCCCCCCCCCCCOc1ccccc1CC(=O)NCC[N+]1(C)CCOCC1 :: 18.2
C=NNc1ccccc1 :: 74
O=C1Nc2ccc(F)cc2/C1=C\c1nc(-c2ccccc2F)n2ccccc12 :: 66.7
Cc1ccccc1OCC(O)COc1ccccc1C :: 114
COc1ccc2c(c1)c(-c1ccc(-c3cn(C)c4ccc(OC)cc34)[nH]1)cn2C :: -10.7
CCOC(=O)NN1CC(O)=C(c2nc(-c3ccc(Br)cc3)cs2)C1=N :: 61.4
Nc1ccc([N+](=O)[O-])cc1N=C/C=C/c1ccccc1 :: 35.5
C=C1C(=O)O[C@H]2[C@H]1CC/C(CNC(=O)c1cc3ccccc3[nH]1)=C\CC[C@@]1(C)O[C@@H]21 :: -37.4
O=C1/C(=C/c2ccc(Br)cc2)COc2ccc(O)c(O)c21 :: 6.26
Cc1cc2oc(=O)cc(CP(=O)(O)O)c2cc1O :: 106
COc1ccc(C2=Nc3c/c(=C\c4c(O)[nH]c5cc(Cl)ccc45)ccc3=N2)cc1 :: 17
CC(C)=CC(=O)N[C@@H]1CC2CCC3C(CC[C@@]4(C)C3CC[C@@H]4C(C)N(C)C)[C@@]2(C)C[C@@H]1O (stereo partly drawn) :: -39.8
CCCCCCCCn1ccc2cc(NC(=O)Cn3cc(CN4CCC(C)CC4)nn3)ccc21 :: -0.808
CCCCNC1=C(OCC)C(=O)c2ccccc2C1=O :: 112
Cc1ccc(-c2nc(C(Cl)Cl)nc3cc(C)nn23)cc1 :: 9.7
Cc1cc(F)ccc1S(=O)(=O)Nc1cc(-c2c(O)ccc3ccccc23)c(O)c2ccccc12 :: 18.8
O=C(CCl)Nc1ccc2c(Nc3cc(O)ccc3Cl)ncnc2c1 :: -22.5
O=C(O)c1cccc(N/C=C/C(=O)c2cc3cc(Br)ccc3oc2=O)c1 :: 105
